Hello, the source for this data is the NIST ThermoML archive (doi:10.1021/je200788z), in case you need it.

Field: refractive index. Provide a value for each of the compounds that follow.
Assay: refractive index (Na D-line) (dimensionless)
Settings: 288.15 K; 101.33 kPa; Liquid; Standard Abbe refractometry
Could you respond with only the numeric value?

Exercise: For the compound CC(C)COC(=O)[C@H](C)[NH3+].CCCCCCCCCCCCOS(=O)(=O)[O-] [(S)-1-isobutoxy-1-oxopropan-2-aminium dodecyl sulfate] , give its reported refractive index.
Key: 1.456

Exercise: For the compound CC(C)COC(=O)[C@@H](N)C(C)C.CCCCCCCCCCCCOS(=O)(=O)O [isobutyl L-valinate dodecyl sulfate] , give its reported refractive index.
Key: 1.4568

Exercise: For the compound CC(C)COC(=O)[C@@H]1CCC[NH2+]1.CCCCCCCCCCCCOS(=O)(=O)[O-] [(S)-2-(isobutoxycarbonyl)pyrrolidinium dodecyl sulfate] , give its reported refractive index.
Key: 1.4648
